Ref: patent US20080181971A1

System: SKMES human non-small cell lung carcinoma cell line
ASSAY TEXT: MTT growth inhibition assay, single agents and fixed-ratio combinations with elsamitrucin (Chou-Talalay, CalcuSyn), SKMES
Format: cell-based
TEST SETTINGS: SKMES growth inhibition; second agent alone, one value per plate (Experiment ID); read-out: Dm Value (95% Confidence Interval), Individually, Second Agent
PROPERTY MEASURED: IC50 (nM)
Enter your answer as a number in nM; do not include the unit.

Hello, please tell me recorded IC50 for this one: N.N.[Cl][Pt][Cl] [Cisplatin, cisplatin]
1670

----------
System: Daudi human lymphoma cell line
ASSAY TEXT: MTT growth inhibition assay, single agents and fixed-ratio combinations with elsamitrucin (Chou-Talalay, CalcuSyn), Daudi
Type: cell-based
TEST SETTINGS: Daudi growth inhibition; second agent alone; Table 8; read-out: Dm Value (95% Confidence Interval), Individually, Second Agent
PROPERTY MEASURED: IC50 (nM)
Enter your answer as a number in nM; do not include the unit.

Hello, please tell me recorded IC50 for this one: N.N.[Cl][Pt][Cl] [Cisplatin, cisplatin]
494

----------
Below, each entry is listed with its recorded pIC50.
Tested on: Daudi human lymphoma cell line
ASSAY TEXT: MTT growth inhibition assay, single agents and fixed-ratio combinations with elsamitrucin (Chou-Talalay, CalcuSyn), Daudi
Format: cell-based
TEST SETTINGS: Homo sapiens, Daudi, SPA-05 (Daudi-e01), single agent, dilution 1:3; read-out: Prism IC50
Give only the number. pIC50 is defined as minus log10 of concentration in molar units.

Below, each entry is followed by its recorded pIC50 result.
Hello, please tell me recorded pIC50 for this one: COc1cc([C@@H]2c3cc4c(cc3[C@@H](O[C@@H]3O[C@@H]5CO[C@@H](C)O[C@H]5[C@H](O)[C@H]3O)[C@H]3COC(=O)[C@H]23)OCO4)cc(OC)c1O [Etoposide, etoposide]
7.69

Hello, please tell me recorded pIC50 for this one: Nc1ccn([C@@H]2O[C@H](CO)[C@@H](O)C2(F)F)c(=O)n1 [Gemcitabine, gemcitabine]
9.22

Hello, please tell me recorded pIC50 for this one: CO[C@@H]1[C@@H](N)[C@@H](O[C@H]2[C@H](Oc3cccc4c(O)c5c(=O)oc6ccc(C)c7c(=O)oc(c34)c5c67)O[C@H](C)[C@H](O)[C@]2(C)O)O[C@H](C)[C@@H]1O [Elsamitrucin]
7.92

Next:
Hello, please tell me recorded pIC50 for this one: CC(=O)O[C@H]1C(=O)[C@@]2(C)[C@H]([C@H](OC(=O)c3ccccc3)[C@]3(O)C[C@H](OC(=O)[C@H](O)[C@@H](NC(=O)c4ccccc4)c4ccccc4)C(C)=C1C3(C)C)[C@]1(OC(C)=O)CO[C@@H]1C[C@@H]2O [Paclitaxel, paclitaxel]
8.44

----------
System: Daudi human lymphoma cell line
ASSAY TEXT: MTT growth inhibition assay, single agents and fixed-ratio combinations with elsamitrucin (Chou-Talalay, CalcuSyn), Daudi
Format: cell-based
TEST SETTINGS: Homo sapiens, Daudi, single agent, ten assays of Table 8; read-out: range of Dm
PROPERTY MEASURED: IC50

Hello, please tell me recorded IC50 for this one: CO[C@@H]1[C@@H](N)[C@@H](O[C@H]2[C@H](Oc3cccc4c(O)c5c(=O)oc6ccc(C)c7c(=O)oc(c34)c5c67)O[C@H](C)[C@H](O)[C@]2(C)O)O[C@H](C)[C@@H]1O
13 to 34 nM

----------
Test system: SKMES human non-small cell lung carcinoma cell line
ASSAY TEXT: MTT growth inhibition assay, single agents and fixed-ratio combinations with elsamitrucin (Chou-Talalay, CalcuSyn), SKMES
Format: cell-based
TEST SETTINGS: Homo sapiens, SPA-14 (SKMES-e27), single agent, dilution 1:1.5 (carmustine also 1:2, r12); read-out: CalcuSyn Dm
PROPERTY MEASURED: IC50 (nM)
Enter your answer as a number in nM; do not include the unit.

Please report the measured IC50 for CN(Cc1cnc2nc(N)nc(N)c2n1)c1ccc(C(=O)N[C@@H](CCC(=O)O)C(=O)O)cc1 [Methotrexate, methotrexate] tested on SKMES human non-small cell lung carcinoma cell line.
10.7

----------
Test system: SKMES human non-small cell lung carcinoma cell line
ASSAY TEXT: MTT growth inhibition assay, single agents and fixed-ratio combinations with elsamitrucin (Chou-Talalay, CalcuSyn), SKMES
Assay type: cell-based
TEST SETTINGS: Homo sapiens, SKMES, single agent, ten assays of Table 5; read-out: range of Dm
pIC50: −log10 of the molar value.
PROPERTY MEASURED: pIC50

Please report the measured pIC50 for CO[C@@H]1[C@@H](N)[C@@H](O[C@H]2[C@H](Oc3cccc4c(O)c5c(=O)oc6ccc(C)c7c(=O)oc(c34)c5c67)O[C@H](C)[C@H](O)[C@]2(C)O)O[C@H](C)[C@@H]1O tested on SKMES human non-small cell lung carcinoma cell line.
7.28 to 7.96

----------
Tested on: SKMES human non-small cell lung carcinoma cell line
ASSAY TEXT: MTT growth inhibition assay, single agents and fixed-ratio combinations with elsamitrucin (Chou-Talalay, CalcuSyn), SKMES
Assay type: cell-based
TEST SETTINGS: Homo sapiens, SPA-14 (SKMES-e27), single agent, dilution 1:1.5 (carmustine also 1:2, r12); read-out: Prism IC50
PROPERTY MEASURED: IC50
Answer format: number, then unit.

Hello, please tell me recorded IC50 for this one: CN(Cc1cnc2nc(N)nc(N)c2n1)c1ccc(C(=O)N[C@@H](CCC(=O)O)C(=O)O)cc1 [Methotrexate, methotrexate]
10.4 nM

----------
Test system: Daudi human lymphoma cell line
ASSAY TEXT: MTT growth inhibition assay, single agents and fixed-ratio combinations with elsamitrucin (Chou-Talalay, CalcuSyn), Daudi
Type: cell-based
TEST SETTINGS: Homo sapiens, Daudi, Daudi growth inhibition; second agent alone; Table 8; read-out: Dm Value (95% Confidence Interval), Individually, Second Agent
pIC50: −log10 of the molar value.
Note to self: class labels come from recorded pIC50, ranges listed here: category 1 (below 7), category 2 (7 to below 8), category 3 (8 or more)

Just checking, what class would you give O=NN(CCCl)C(=O)NCCCl here?
category 1

Just checking, what class would you give COc1cc([C@@H]2c3cc4c(cc3[C@@H](O[C@@H]3O[C@@H]5CO[C@@H](C)O[C@H]5[C@H](O)[C@H]3O)[C@H]3COC(=O)[C@H]23)OCO4)cc(OC)c1O [Etoposide, etoposide] here?
category 2

Just checking, what class would you give CN(Cc1cnc2nc(N)nc(N)c2n1)c1ccc(C(=O)N[C@@H](CCC(=O)O)C(=O)O)cc1 [Methotrexate, methotrexate] here?
category 2

Just checking, what class would you give O=c1[nH]cc(F)c(=O)[nH]1 here?
category 1

Just checking, what class would you give CC(C)C[C@H](NC(=O)[C@H](Cc1ccccc1)NC(=O)c1cnccn1)B(O)O here?
category 3

Just checking, what class would you give CC(=O)O[C@H]1C(=O)[C@@]2(C)[C@H]([C@H](OC(=O)c3ccccc3)[C@]3(O)C[C@H](OC(=O)[C@H](O)[C@@H](NC(=O)c4ccccc4)c4ccccc4)C(C)=C1C3(C)C)[C@]1(OC(C)=O)CO[C@@H]1C[C@@H]2O here?
category 3

Just checking, what class would you give Nc1ccn([C@@H]2O[C@H](CO)[C@@H](O)C2(F)F)c(=O)n1 here?
category 3

----------
System: Daudi human lymphoma cell line
ASSAY TEXT: MTT growth inhibition assay, single agents and fixed-ratio combinations with elsamitrucin (Chou-Talalay, CalcuSyn), Daudi
Format: cell-based
TEST SETTINGS: Homo sapiens, Daudi, SPA-05 (Daudi-e01), single agent, dilution 1:3; read-out: Prism IC50
PROPERTY MEASURED: IC50

Below, each entry is followed by its recorded IC50 result.
Hello, please tell me recorded IC50 for this one: CC(C)C[C@H](NC(=O)[C@H](Cc1ccccc1)NC(=O)c1cnccn1)B(O)O
3.7 nM

Hello, please tell me recorded IC50 for this one: CN(Cc1cnc2nc(N)nc(N)c2n1)c1ccc(C(=O)N[C@@H](CCC(=O)O)C(=O)O)cc1 [Methotrexate, methotrexate]
~20 nM

Hello, please tell me recorded IC50 for this one: CC[C@@]1(O)C(=O)OCc2c1cc1n(c2=O)Cc2cc3ccccc3nc2-1
8.5 nM

Attention now shifts to the item below.
Hello, please tell me recorded IC50 for this one: O=c1[nH]cc(F)c(=O)[nH]1
~9200 nM

----------
System: HT29 human colon carcinoma cell line
ASSAY TEXT: MTT growth inhibition assay, single agents and fixed-ratio combinations with elsamitrucin (Chou-Talalay, CalcuSyn), HT29
Assay type: cell-based
TEST SETTINGS: Homo sapiens, HT-29, HT29, Table 1; read-out: average Dm determined in the preliminary experiments
PROPERTY MEASURED: pIC50
Give only the number. pIC50 is defined as minus log10 of concentration in molar units.

Please report the measured pIC50 for CO[C@@H]1[C@@H](N)[C@@H](O[C@H]2[C@H](Oc3cccc4c(O)c5c(=O)oc6ccc(C)c7c(=O)oc(c34)c5c67)O[C@H](C)[C@H](O)[C@]2(C)O)O[C@H](C)[C@@H]1O [Elsamitrucin] tested on HT29 human colon carcinoma cell line.
7.11
